meta.source: PubChem BioAssay AID179

System: CEM cells HIV-1 protection, formazan growth assay
Test: NCI AIDS Antiviral Assay
Below, each entry is listed alongside its reported EC50.

{"Compound": "CC(CNc1ccc(Cl)cc1)(CNc1ccc(Cl)cc1)[N+](=O)[O-]", "Target Under Test": "CEM cells HIV-1 protection, formazan growth assay", "Observed Measurement": "> 14.8 µM"}
{"Compound": "COc1ccc(-c2nc(N)c(C#N)c3c2CCSc2ccc(C)cc2-3)cc1OC", "Target Under Test": "CEM cells HIV-1 protection, formazan growth assay", "Observed Measurement": "> 200 µM"}
{"Compound": "COc1ccccc1NC(=S)N/N=C(/c1ccccc1)c1ccccn1", "Target Under Test": "CEM cells HIV-1 protection, formazan growth assay", "Observed Measurement": "> 0.2 µM"}

Data request: Using known records, supply EC50 for COC(=S)SSC(=S)NCCN(CCNC(=S)SSC(=S)OC)C(=S)SSC(=S)OC
Data returned: > 257 µM

Data request: Recall and state the measured EC50 for O=C(/C=C/c1ccc(Cl)c(Cl)c1)c1cccc2ccccc12 .
Data returned: > 3.16 µM

Data request: Read the entry Nc1ncnc2c1C=C(B(O)O)B(O)N2 and write its reported EC50.
Data returned: > 126 µM

Data request: Answer with the recorded EC50 of CC1=C(C)C(=O)C(C2=C(C3=CC(=O)C(C)=C(C)C3=O)C(=O)c3ccccc3C2=O)=CC1=O only.
Data returned: > 200 µM

====

Tested on: CEM cells HIV-1 protection, formazan growth assay
Assay: NCI AIDS Antiviral Assay
Details: measured here: growth of uninfected CEM cells
Where a SMILES comes first, the peptide text is derived from it.
Property Measured: IC50

Completed entries (count: 5):
{"Compound": "O=[N+]([O-])c1ccc(-c2cn(-c3ccc(Cl)cc3)cn2)cc1", "IC50": "> 100 µM"}
{"Compound": "CNc1ncc(-c2nnnn2-c2ccccc2)c(CN(C)C)n1", "IC50": "> 200 µM"}
{"Compound": "CC(C)(C)OC(=O)NNC(=O)C1Cc2ccccc2OC1=O (configuration not stated)", "IC50": "> 200 µM"}
{"Compound": "CC(O)C(NC(=O)C(CCCCN)NC(=O)C(CC(=O)O)NC(=O)C(N)Cc1ccccc1)C(=O)NC(CO)C(=O)NC(CC(N)=O)C(=O)NC(CO)C(=O)N1CCCC1C(=O)NC(Cc1ccc(O)cc1)C(=O)NC(Cc1cnc[nH]1)C(=O)NC(Cc1ccccc1)C(=O)O (configuration not stated) (H-FDKTSNSPYHF-OH; configuration not given here)", "IC50": "> 46.8 µM"}
{"Compound": "COc1ccc2c(O)c(Cl)c(=O)oc2c1", "IC50": "> 200 µM"}

Data request: Answer with the recorded IC50 for the compound listed here: Cn1c(=O)c(=O)n(C)c2nc3ccccc3nc21
Data returned: > 4.27 µM

Data request: For the compound O=C(O)c1cc2cc([N+](=O)[O-])ccc2oc1=O , give its reported IC50.
Data returned: > 447 µM

Data request: Please give the documented IC50 of Nc1ccc2nc3n(c2c1)C(c1c(F)cccc1F)SC3 (configuration not stated)
Data returned: 126 µM

Data request: Kindly indicate its recorded IC50. Item: O=c1ccn(C2CCC3(CO)CC23)c(=O)[nH]1 (configuration not stated)
Data returned: > 50.1 µM

Data request: State, in one line, measured IC50 of Cc1c(C#N)c2n(c1C)CCCC(=O)N2
Data returned: > 219 µM

Data request: Tell us which IC50 value is on record for O=c1[nH]c2cnn(-c3ccccc3)c2c(=O)n1OS(=O)(=O)c1ccccc1
Data returned: > 200 µM

Data request: Provide measured IC50 value, entry: CCOC(=O)CC(O)(c1ccccc1)c1ccccc1
Data returned: > 10 µM

Data request: Complete the entry with IC50 for CCOC(=O)C1(O)Nc2ncncc2N(C)C1=O (configuration not stated)
Data returned: > 200 µM

Data request: Annotate the compound S=P(N1CCOCC1)(N1CC1)N1CC1 with its measured IC50.
Data returned: 5.25 µM

Data request: Quote IC50 reported for COc1ccc(/C=C/C(=O)c2nc3ccccc3[nH]2)cc1 please.
Data returned: 3.98 µM

Data request: Please give the documented IC50 of O=[N+]([O-])c1ccc(NS(=O)(=O)C(F)(F)F)cc1
Data returned: > 200 µM

Data request: State, in one line, measured IC50 of COC(=S)SSC(=S)NCCN(CCNC(=S)SSC(=S)OC)C(=S)SSC(=S)OC
Data returned: 209 µM

====

System: CEM cells HIV-1 protection, formazan growth assay
Experiment: NCI AIDS Antiviral Assay
Property Measured: EC50

Would you please look over these solved cases?
{"Compound": "O=S(=O)(O)c1ccc(Nc2ccnc3ccccc23)cc1", "EC50": "> 200 µM"}
{"Compound": "CC(=O)NNc1nc(C)c(C(=O)/C=C/c2ccc(/C=C/C(=O)c3sc(NNC(C)=O)nc3C)cc2)s1", "EC50": "> 49 µM"}
{"Compound": "COC1CC(COCc2ccccc2)CC(OC)O1 (configuration not stated)", "EC50": "> 200 µM"}
{"Compound": "NC(C(=O)O)C1=CCCCCC1 (configuration not stated)", "EC50": "> 200 µM"}
{"Compound": "N#C/C=C/c1cccc(C#N)c1", "EC50": "> 46.8 µM"}

Data request: Answer with reported EC50 of COc1ccc2nc3cc(Cl)ccc3c(NC(C)CCCN(C)C)c2n1 (configuration not stated)
Data returned: > 2 µM

Data request: Supply measured EC50 of CC1=C(C(=O)NNC(=O)c2ccccc2O)CC(C(=O)NNC(=O)c2ccccc2O)=C(C)N1 in your reply.
Data returned: > 200 µM

Data request: Kindly indicate its recorded EC50. Item: CC1=NN(C(=O)c2ccc(Cl)cc2)C(=O)/C1=C/c1ccccc1O
Data returned: > 20.9 µM

====

System: CEM cells HIV-1 protection, formazan growth assay
Test: NCI AIDS Antiviral Assay;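 active = compounds giving half or more protection of infected cells from virus-caused growth loss, again on retest; inactive = the rest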
Answer with one of the outcomes yes = active, no = inactive

{"Molecule": "N.N.N.N.O=S(=O)([O-])[O-].[Co+3].[OH3+].[OH3+]", "Target Under Test": "CEM cells HIV-1 protection, formazan growth assay", "Label": "no"}
{"Molecule": "O=C1C=CC(=O)[C@H]2C3C=CC(C4C3C3(Cl)C(Cl)=C(Cl)[C@]4(Cl)C3(Cl)Cl)[C@@H]12 (some centres undefined)", "Target Under Test": "CEM cells HIV-1 protection, formazan growth assay", "Label": "no"}
{"Molecule": "NNC(=O)c1ccc(-n2nnc(C(=O)NN)c2C(=O)NN)cc1", "Target Under Test": "CEM cells HIV-1 protection, formazan growth assay", "Label": "yes"}
{"Molecule": "Cc1cc([N+](=O)[O-])c(C)c2c1[nH]c1ccc(Cl)cc12", "Target Under Test": "CEM cells HIV-1 protection, formazan growth assay", "Label": "no"}
{"Molecule": "O=Nc1ccc(N(CCO)CCO)cc1", "Target Under Test": "CEM cells HIV-1 protection, formazan growth assay", "Label": "no"}

Data request: Short answer needed: outcome of this test for CC1C(C#N)(C#N)C(C#N)=C(N)C1(Cl)[N+](=O)[O-] (centres undefined) ?
Data returned: no

Data request: Which outcome was assigned to Cc1ccc(Nc2[nH]c(=O)[nH]c(=O)c2C)cc1Cl in this test?
Data returned: no

Data request: Dear colleague, could you share the recorded outcome for Cc1c(N=Nc2ccc(N(C)C)cc2)cc[n+]([O-])c1C when you have a moment?
Data returned: no

Data request: Short answer needed: outcome of this test for O=C(OCCN1CCCC12CCCCC2)C(c1ccccc1)C1CCCC1 (centres undefined) ?
Data returned: no

====

Tested on: CEM cells HIV-1 protection, formazan growth assay
Experiment: NCI AIDS Antiviral Assay;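 active = compounds giving half or more protection of infected cells from virus-caused growth loss, again on retest; inactive = the rest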
A correct response names exactly one class from T (active), F (inactive)

{"Molecule": "CO/N=C(/C(=O)Nc1c[n+](CC(=O)[O-])cs1)c1csc(N)n1", "Label": "F"}
{"Molecule": "COc1ccc2nc3cc(Cl)ccc3c(SCC(=O)Nc3ccccc3-c3ccccc3NC(=O)CSc3c4ccc(Cl)cc4nc4ccc(OC)cc34)c2c1", "Label": "F"}
{"Molecule": "O=S(=O)(O)c1ccc2c(N=Nc3ccc(/C=C/c4ccc(N=Nc5c(O)ccc6cc(S(=O)(=O)O)ccc56)cc4S(=O)(=O)O)c(S(=O)(=O)O)c3)c(O)ccc2c1", "Label": "T"}
{"Molecule": "CC(C)(C)C(=O)O/C=C\\OC1CCCC1(c1ccccc1)c1ccccc1 (stereo not drawn)", "Label": "F"}

Data request: Record request — test call for O=S(=O)(OC(=C(c1ccccc1)c1ccccc1)c1ccccc1)C(F)(F)F
Data returned: F

Data request: Entry C/C(O)=C(/C=NC(=S)c1ccncc1)C(=O)Nc1ccccc1 : call = ?
Data returned: F

Data request: Lab log entry: COc1ccc(-[n+]2nc(S(=O)(=O)O)c(/C=C/c3ccc(N(C)C)cc3)cc2C#N)cc1 — outcome as called in the assay?
Data returned: F

Data request: For CC(=O)OCC1OC(n2c(=O)[nH]c(=O)c3n[nH]nc32)C(OC(C)=O)C(OC(C)=O)C1OC(C)=O (stereo not drawn) , what call appears in the results of this test?
Data returned: F

Data request: Dear colleague, could you share the recorded outcome for O=C(O)c1ccc(Nc2nc3ccccc3nc2C(=O)O)cc1 when you have a moment?
Data returned: F

Data request: Hi, do you know how CCOC(=O)C1(C/C=C/CBr)CCc2ccccc2C1=O (stereo not drawn) came out in this test?
Data returned: F

Data request: Which outcome did this test record for the molecule C=C1C(=O)OC2C=CCCCC12 (stereo not drawn) ?
Data returned: F

Data request: Please state the recorded outcome for this molecule: CCCCCCCCCCCCSS(=O)(=O)c1ccc(C)cc1
Data returned: F

Data request: # lookup: test call for O=C1C=C(Nc2ccccc2C(=O)c2ccccc2)c2ccccc2C1=O
Data returned: F
